Each entry below carries its reported HSV-1 infection.
Test system: HSV-1 strain 17 YFP-ICP4 in A549
Test: HSV-1 infection relative to DMSO (ICP4-YFP per H2B-RFP signal); higher = more viral infection (less antiviral activity), active = hit call of the paper
Details: 10 µM; 48 h; MOI: 0.1
Out of some 1,700 compounds screened, about 15 (0.9%) showed activity. The entries come from a sample that favours actives as a whole.

compound | HSV-1 infection (%)
O.O.O.O=C([O-])C1[O][Sb]2[O]C(=O)C([O]2)C(C(=O)[O-])[O][Sb]2[O]C(=O)C1[O]2.[K+].[K+] (stereo not drawn) [Antimonyl potassium tartrate trihydrate] | 80.2
CCCCc1nc2cc(/C=C/C(=O)NO)ccc2n1CCN(CC)CC [Pracinostat (SB939)] | 44.1
CCCc1nc(C(C)(C)O)c(C(=O)O)n1Cc1ccc(-c2ccccc2-c2nnn[nH]2)cc1 [Olmesartan] | 114

----------
Test system: HSV-1 strain 17 YFP-ICP4 in A549
Test: HSV-1 infection relative to DMSO (ICP4-YFP per H2B-RFP signal); higher = more viral infection (less antiviral activity), active = hit call of the paper
Settings: 10 µM; 48 h; MOI: 0.1
Where a name gives a salt, the structure may show the parent alone. The campaign covered roughly 1,700 compounds. About 15 (0.9%) showed activity.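 How the source made its calls: active = infection cut by 80% or more with cell growth above 90% in both runs; inactive = the rest.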 Only a selection was taken, and actives are over-represented in it overall.
Outcome codes: true (1) for active, false (0) for inactive

compound | study.system | cat
Cc1cncc(CN2CCC(=C3c4ccc(Cl)cc4CCc4cccnc43)CC2)c1 [Rupatadine Fumarate] | HSV-1 strain 17 YFP-ICP4 in A549 | false (0)
CCCCCCCCOc1ccccc1C(=O)Nc1ccc(C(=O)OCC[N+](C)(CC)CC)cc1 [Otilonium Bromide] | HSV-1 strain 17 YFP-ICP4 in A549 | false (0)
CC(C)OC(=O)[C@H](C)N[P@](=O)(CO[C@H](C)Cn1cnc2c(N)ncnc21)Oc1ccccc1 [Tenofovir Alafenamide (GS-7340)] | HSV-1 strain 17 YFP-ICP4 in A549 | true (1)
C=CN1CCCC1=O.II | HSV-1 strain 17 YFP-ICP4 in A549 | false (0)
CC(C)OC(=O)OCOP(=O)(CO[C@H](C)Cn1cnc2c(N)ncnc21)OCOC(=O)OC(C)C [Tenofovir Disoproxil Fumarate] | HSV-1 strain 17 YFP-ICP4 in A549 | false (0)
CCC[C@@H]1C[C@@H](C(=O)N[C@@H]([C@H]2O[C@H](SC)[C@H](O)[C@@H](O)[C@H]2O)[C@@H](C)O)N(C)C1 [Lincomycin Hydrochloride Monohydrate] | HSV-1 strain 17 YFP-ICP4 in A549 | false (0)
Nc1nc2c(ncn2COC(CO)CO)c(=O)[nH]1 | HSV-1 strain 17 YFP-ICP4 in A549 | true (1)
O=c1c(-n2ccnn2)c[nH]n1-c1cc(N2CCOCC2)ncn1 | HSV-1 strain 17 YFP-ICP4 in A549 | false (0)
CCC[C@@H]1C[C@@H](C(=O)N[C@@H]([C@H]2O[C@H](SC)[C@H](OP(=O)(O)O)[C@@H](O)[C@H]2O)[C@H](C)Cl)N(C)C1 [Clindamycin Phosphate] | HSV-1 strain 17 YFP-ICP4 in A549 | false (0)
CN[C@H]1C(=O)N[C@@H]2Cc3ccc(cc3)Oc3cc4cc(c3O[C@@H]3O[C@H](C(=O)O)[C@@H](O)[C@H](O)[C@H]3NC(=O)CCCCCCCCC(C)C)Oc3ccc(cc3Cl)[C@@H](O)[C@@H]3NC(=O)[C@H](NC(=O)[C@@H]4NC(=O)[C@@H](NC2=O)c2cc(cc(O)c2Cl)Oc2cc1ccc2O)c1ccc(O)c(c1)-c1c(O[C@H]2O[C@H](CO)[C@@H](O)[C@H](O)[C@@H]2O)cc(O)cc1[C@@H](C(=O)NCCCN(C)C)NC3=O | HSV-1 strain 17 YFP-ICP4 in A549 | false (0)
Nc1nc2c(ncn2COCCO)c(=O)[nH]1 | HSV-1 strain 17 YFP-ICP4 in A549 | true (1)
C[C@H](Cn1cnc2c(N)ncnc21)OCP(=O)(O)O | HSV-1 strain 17 YFP-ICP4 in A549 | false (0)
C=C1CCN([C@H](C)[C@](O)(Cn2cncn2)c2ccc(F)cc2F)CC1 | HSV-1 strain 17 YFP-ICP4 in A549 | false (0)
O=c1[nH]c(=O)n([C@H]2C[C@H](O)[C@@H](CO)O2)cc1I | HSV-1 strain 17 YFP-ICP4 in A549 | true (1)
O=c1[nH]c(=O)n([C@H]2C[C@H](O)[C@@H](CO)O2)cc1/C=C/Br | HSV-1 strain 17 YFP-ICP4 in A549 | true (1)
Cc1cn([C@@H]2C[C@@H](O)[C@H](CO)O2)c(=O)[nH]c1=O | HSV-1 strain 17 YFP-ICP4 in A549 | false (0)
Cc1c(C(=O)NN2CCCCC2)nn(-c2ccc(Cl)cc2Cl)c1-c1ccc(Cl)cc1 | HSV-1 strain 17 YFP-ICP4 in A549 | false (0)
CN(N=O)C(=O)NC1C(O)OC(CO)C(O)C1O (stereo not given) [Streptozotocin (STZ)] | HSV-1 strain 17 YFP-ICP4 in A549 | false (0)
COc1ccccc1OCCN | HSV-1 strain 17 YFP-ICP4 in A549 | false (0)
COc1cc(CNC(=O)CCCCC=CC(C)C)ccc1O | HSV-1 strain 17 YFP-ICP4 in A549 | false (0)
NC(=O)CCC(N)C(=O)O (racemic) | HSV-1 strain 17 YFP-ICP4 in A549 | false (0)
COc1cc2c(cc1OC)CN(CCc1ccc(NC(=O)c3cccc4c(=O)c5cccc(OC)c5[nH]c34)cc1)CC2 | HSV-1 strain 17 YFP-ICP4 in A549 | false (0)
O=c1[nH]c(=O)n([C@H]2C[C@H](O)[C@@H](CO)O2)cc1C(F)(F)F | HSV-1 strain 17 YFP-ICP4 in A549 | false (0)
CO[C@@]1(NC(=O)CSC[C@@H](N)C(=O)O)C(=O)N2C(C(=O)O)=C(CSc3nnnn3C)CS[C@@H]21 [Cefminox Sodium] | HSV-1 strain 17 YFP-ICP4 in A549 | false (0)
C[C@@H](O)[C@H]1C(=O)N2C(C(=O)O)=C(S[C@@H]3CN[C@H](C(=O)Nc4cccc(C(=O)O)c4)C3)[C@H](C)[C@H]12 [Ertapenem sodium] | HSV-1 strain 17 YFP-ICP4 in A549 | false (0)
COc1nc2ccc(Br)cc2cc1[C@@H](c1ccccc1)[C@@](O)(CCN(C)C)c1cccc2ccccc12 | HSV-1 strain 17 YFP-ICP4 in A549 | false (0)
CC(=C(CCOC(=O)C(C)C)SSC(CCOC(=O)C(C)C)=C(C)N(C=O)Cc1cnc(C)nc1N)N(C=O)Cc1cnc(C)nc1N (stereo in doubt) | HSV-1 strain 17 YFP-ICP4 in A549 | false (0)
COc1ccc(CN(C(=O)[C@@H](N)Cc2c(C)cc(C(N)=O)cc2C)[C@@H](C)c2ncc(-c3ccccc3)[nH]2)cc1C(=O)O | HSV-1 strain 17 YFP-ICP4 in A549 | false (0)
NC(=O)[C@@H]1CC[C@@H]2CN1C(=O)N2OS(=O)(=O)O [Avibactam sodium] | HSV-1 strain 17 YFP-ICP4 in A549 | false (0)
CC(C)OC(=O)[C@H](C)N[P@](=O)(OC[C@H]1O[C@@H](n2ccc(=O)[nH]c2=O)[C@](C)(F)[C@@H]1O)Oc1ccccc1 | HSV-1 strain 17 YFP-ICP4 in A549 | false (0)
